Biological target: CyclinB/cdk1 (Homo sapiens, UniProt P06493)
Construct: Monoclonal antibody against cyclinB (GNS1) is added to the supernatant; endogenous in cells
Sequence (P06493 whole entry): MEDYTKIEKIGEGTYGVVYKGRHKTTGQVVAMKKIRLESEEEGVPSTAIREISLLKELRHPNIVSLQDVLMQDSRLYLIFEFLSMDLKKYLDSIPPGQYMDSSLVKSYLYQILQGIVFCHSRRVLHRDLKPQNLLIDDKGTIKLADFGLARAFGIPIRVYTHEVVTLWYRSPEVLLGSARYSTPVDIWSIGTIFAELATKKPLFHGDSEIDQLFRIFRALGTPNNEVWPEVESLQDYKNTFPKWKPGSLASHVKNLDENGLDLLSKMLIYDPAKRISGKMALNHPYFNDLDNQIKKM
Sequence (P14635 whole entry partner): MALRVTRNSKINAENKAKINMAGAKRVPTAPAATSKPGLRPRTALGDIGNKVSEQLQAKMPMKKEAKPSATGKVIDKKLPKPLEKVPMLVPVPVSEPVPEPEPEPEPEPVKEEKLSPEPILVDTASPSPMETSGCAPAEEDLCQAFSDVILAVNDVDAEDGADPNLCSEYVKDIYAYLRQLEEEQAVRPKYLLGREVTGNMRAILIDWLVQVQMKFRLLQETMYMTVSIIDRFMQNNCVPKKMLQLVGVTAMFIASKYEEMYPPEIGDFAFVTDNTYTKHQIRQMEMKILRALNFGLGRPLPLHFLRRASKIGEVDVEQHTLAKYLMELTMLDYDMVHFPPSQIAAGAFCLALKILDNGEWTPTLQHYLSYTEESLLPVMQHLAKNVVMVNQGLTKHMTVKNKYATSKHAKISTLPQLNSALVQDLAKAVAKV
Assay: CyclinB/cdk1 protein kinase assay (histone H1 phosphorylation)
Settings: Table 2; complexes isolated from HeLa cells, histone H1, 15 μM ATP; replicate experimental results; read-out: IC50 CyclinB/cdkl
pIC50: −log10 of the molar value.
ATTRIBUTE MEASURED: pIC50

Provide measured pIC50 value, entry: CC[C@H](CO)Nc1nc(NCc2ccc(-c3cccc([N+](=O)[O-])c3)cc2)c2ncn(C(C)C)c2n1
< 5.00
